# Tested on: MCF7 breast
# TEST METHOD NOTES: NCI-60 one-dose screen, 48 h (100 = growth as untreated, 0 = no growth, -100 = all killed)
# EXPERIMENTAL CONTEXT: 10 µM unless noted
Compounds without any hit were thinned out: in the full panel of roughly 83,000, 20% have a hit. The source made the active and inactive calls. The calls were made as follows: active = growth percent below 10; inactive = the rest.
I'd be grateful if you could share measured growth for these entries.

Below: 4 compounds and their reported growth.
- COMPOUND: "O=C(c1ccc(Cl)cc1)C1C(c2ccccc2)C1[N+](=O)[O-] (configuration not stated)"
  growth: "96% (inactive)"
- COMPOUND: "COC(=O)c1nc(N)nc(C(=O)OC)c1C(=O)c1ccc(F)cc1"
  growth: "97.1% (inactive)"
- COMPOUND: "COc1cc2c(cc1O)C(=O)CCCC2"
  growth: "91.2% (inactive)"
- COMPOUND: "N=c1sc2ccccc2n1CC(=O)O"
  growth: "99% (inactive)"

For every item in the list below, what is its measured growth?
1. O=C1C=CC(=O)N1Cc1ccco1
2. CCC(C)(O)CCC(C)(O)CC (configuration not stated)
3. O=C(O)c1cc(=O)[nH]c(=O)[nH]1
4. COC(=O)c1nc(=S)[nH]c(C(=O)OC)c1C(=O)c1ccccc1
5. COC(=O)c1cc(C(=O)OC)cc([N+](=O)[O-])c1
6. Cc1cc(-c2ccc(N=Nc3c(C)nn(-c4ccc(S(=O)(=O)O)cc4)c3O)c(C)c2)ccc1N=Nc1ccc(O)c(C(=O)O)c1
7. N#Cc1c(N)nc2c(c(-c3ccc(Cl)cc3)nn2-c2ccccc2)c1C#N

1: 62% (inactive); 2: 92.4% (inactive); 3: 98.7% (inactive); 4: 94.2% (inactive); 5: 98% (inactive); 6: 94% (inactive); 7: 97.1% [100 µM] (inactive)

Find the recorded growth belonging to CCN(CC)CCO/N=C1\CC(c2ccc(OC)c(OC)c2)Oc2ccccc21 (configuration not stated) and report it. 89.4% (inactive)

Values were extracted from PubChem BioAssay (NCI).
